Test system: CAKI-1 renal
Assay: NCI tumour cell line growth inhibition, 48 h
Form field: TGI (one value per entry).

CCC[CH2][Sn]1([CH2]CCC)[O]C(=O)CN=C(C)c2ccccc2[O]1: 2.1 µM
COc1ccc2nc3cc(Cl)ccc3c(NCCNCC(O)CO)c2c1 (stereo not drawn): 20.3 µM
O=c1sc(Nc2ccc3ccccc3c2Cl)nc2ccccc12: > 100 µM
CS(=O)(=O)O[C@H]1C(=O)N(c2cc3c4ccccc4ccc3c3ccccc23)[C@@H]1c1ccccn1: > 100 µM

Prompt: Please give the documented TGI of CC(NC(=O)C(N)CC(=O)O)C(=O)OC12CC3CC(CC(C3)C1)C2 (stereo not drawn)
Response: > 100 µM

Prompt: Please give the documented TGI of COc1cc(N2CCN(C(C)C)CC2)ccc1Nc1nc(Nc2ccc(F)cc2C(=O)NCC(O)CO)c2cc[nH]c2n1 (stereo not drawn)
Response: > 25 µM

---

System: HT29 colon
Assay: NCI tumour cell line growth inhibition, 48 h
Form field: TGI (one value per entry).

Some compounds with known TGI results, for comparison:
C[C@]12CCCN1CC1=NNC(=O)c3cc(F)cc4[nH]c2c1c34: > 100 µM
CCOC(=O)c1cc(C2=CCNC2=O)c(-c2cc(C)no2)[nH]1: > 100 µM
COc1ccc(N2C(=O)C(=O)N(C)C2=O)c2ccccc12: > 10 µM
N#CC(NNC(=O)c1c(Cl)c(Cl)c(Cl)c(Cl)c1-c1nc2ccc(C(=O)c3ccccc3)cc2[nH]1)c1ccccc1 (stereo not given): > 100 µM
COc1ccc(C(OC(=O)[C@H](O[Si](C)(C)C(C)(C)C)[C@@H](NC(=O)c2ccccc2)c2ccccc2)c2ccc(OC)cc2)cc1: > 100 µM

Prompt: Please give the documented TGI of Clc1ccc(-c2nc3c(-c4ccccc4)nc(-c4ccccc4)cn3c2-c2ccc(Cl)cc2)cc1
Response: > 100 µM

Prompt: Please give the documented TGI of CCCC(=O)N(C)N=Nc1ccc(C(=O)OCC)cc1
Response: > 100 µM

---

Form field: TGI (one value per entry).
System: SF-539 CNS
Experiment: NCI tumour cell line growth inhibition, 48 h
Report as a plain number; the unit µM is understood.

Prompt: Please give the documented TGI of CC(=O)c1cc2c(s1)C(=O)c1ccsc1C2=O
Response: 0.649

Prompt: Please give the documented TGI of COC1=CC(c2ccc[nH]2)=N/C1=C\c1[nH]c(C)c(C(=O)Oc2ccccc2)c1C
Response: 1.63

Prompt: Please give the documented TGI of N#CC(NNC(=O)c1c(Cl)c(Cl)c(Cl)c(Cl)c1-c1nc2ccc(C(=O)c3ccccc3)cc2[nH]1)c1ccccc1 (stereo not given)
Response: 14.5

Prompt: Please give the documented TGI of O=C(NNC(=S)Nc1ccc(Cl)cc1)C12CC3CC(CC(C3)C1)C2
Response: 14.3

---

Test system: OVCAR-5 ovarian
Assay: NCI tumour cell line growth inhibition, 48 h; in the data active = GI50 below about 0.43 µM; inactive = the rest
Answer with one of the outcomes yes (1) = active, no (0) = inactive

Study these solved cases before continuing.
CON=C1C[C@]2(C[C@@H]3C[C@@H](C/C=C(\C)C[C@@H](C)/C=C/C=C4\CO[C@@H]5[C@H](O)C(C)=C[C@@H](C(=O)O3)[C@]45O)O2)O[C@H](/C(C)=C/C(C)C)[C@H]1C: no (0)
COc1cc(N2CCN(C(C)C)CC2)ccc1Nc1nc(Nc2ccc(F)cc2C(=O)NCC(O)CO)c2cc[nH]c2n1 (configuration not stated): no (0)
O=C(COc1cccc(/C=C2\COc3ccccc3C2=O)c1)c1ccccc1: no (0)

Prompt: Per the records of this test, what outcome belongs to C=C1C(=O)O[C@@H]2C[C@@H]1CC[C@]1(C)O[C@H]1CC/C(C)=C/CC[C@@]2(C)O ?
Response: no (0)

Prompt: Per the records of this test, what outcome belongs to CC(C)(C)[Si](C)(C)OC1[C@@H](O[Si](C)(C)C(C)(C)C)[C@@H](CNC(=O)NC(=O)NC(=O)CCl)O[C@H]1n1cnc2c(NC(=O)Nc3ccccc3)ncnc21 (some centres not stated) ?
Response: no (0)

Prompt: Per the records of this test, what outcome belongs to Clc1ccc(C2CC(c3cccc(Nc4ccncc4)c3)=NN2c2ccccc2)cc1 (configuration not stated) ?
Response: no (0)

These measurements were taken from PubChem BioAssay (NCI).
